Property: IC50; scope: individual compounds
TARGET: JAK2 (recombinant purified GST-tagged catalytic domain) (Homo sapiens (Human), UniProt O60674)
Sequence (O60674 849-1124): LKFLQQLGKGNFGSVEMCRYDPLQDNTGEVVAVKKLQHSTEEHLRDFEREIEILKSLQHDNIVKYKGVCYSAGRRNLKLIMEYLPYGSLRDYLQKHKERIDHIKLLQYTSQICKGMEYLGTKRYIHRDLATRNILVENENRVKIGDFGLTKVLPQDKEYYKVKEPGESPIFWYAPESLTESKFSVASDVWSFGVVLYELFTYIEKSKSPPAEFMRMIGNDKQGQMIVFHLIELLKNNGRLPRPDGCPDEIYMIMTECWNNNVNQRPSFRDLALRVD
PROTOCOL DETAILS: Jak Biochemical HTRF Assay (JAK2)
TEST CONTEXT: [ATP] 8.5 μM
Reply with just the number (in nM).

- CC(C)(C)OC(=O)[C@@H]1CC[C@@](CC#N)(n2nc(Nc3ccc(C4(C(F)(F)F)CCCCN4)cc3)c3c(=O)[nH]ccc32)CO1 (single isomer, unassigned) [Example 5-287]: 0.35
- CC(c1ccc(Nc2nn([C@]3(CC#N)CCCOC3)c3cc[nH]c(=O)c23)cc1)N1CCCC1 (single isomer, unassigned) [Example 5-200]: 0.53

For the next question, use this compound.
Challenge: Please report the recorded IC50 for Cc1cc(Nc2nn([C@@]3(CC#N)CCN(C(=O)OC(C)(C)C)C[C@H]3F)c3cc[nH]c(=O)c23)ccc1C(=O)N1CCSCC1 [Example 5-279] .
Response given: 0.12

----------
TARGET: JAK2 (recombinant purified GST-tagged catalytic domain) (Homo sapiens (Human))
PROTOCOL DETAILS: Jak Biochemical HTRF Assay (JAK2)
TEST CONTEXT: [ATP] 8.5 μM
MEASUREMENT KIND: pIC50
By convention, pIC50 is the negative base-10 log of a molar concentration.

Worked examples follow.
* CCNC(c1ccc(Nc2nn([C@]3(CC#N)CC[C@@H](C(=O)OC(C)(C)C)OC3)c3cc[nH]c(=O)c23)cc1)C(F)(F)F (single isomer, unassigned) [Example 5-207] | 9.59
* COC(c1ccc(Nc2nn([C@@]3(CC#N)CCN(C(=O)OC(C)(C)C)C[C@H]3F)c3cc[nH]c(=O)c23)cc1)C(F)(F)F (stereo partly drawn) | 10.05
* CC(C)S(=N)(=O)c1ccc(Nc2nn([C@]3(CC#N)CCCOC3)c3cc[nH]c(=O)c23)cc1 (single isomer, unassigned) [Example 5-233] | 9.40
* CN(C)S(=O)(=O)c1ccc(Nc2nn(C3(CC#N)CCN(C(=O)CC(F)(F)F)CC3)c3cc[nH]c(=O)c23)cc1 | 9.51
* Cc1cc(Nc2nn(C3(CC#N)CCN(c4ccc(C#N)cn4)CC3F)c3cc[nH]c(=O)c23)ccc1C(=O)N1CCSCC1 (stereo in doubt) | 10.05
* CC1(C)C(=O)Nc2cc(Nc3nn([C@@]4(CC#N)CCCC[C@H]4F)c4cc[nH]c(=O)c34)ccc21 | 10.40

Challenge: Please report the recorded pIC50 for CN(C)[C@H]1CC[C@](CC#N)(n2nc(Nc3ccc4c(c3)CN(C(C)(C)C)S4(=O)=O)c3c(=O)[nH]ccc32)CC1 .
Response given: 8.35

Challenge: Please report the recorded pIC50 for CC(C)(C)OC(=O)[C@@H]1CC[C@@](CC#N)(n2nc(Nc3ccc(S(=O)(=O)C4CC4)cc3)c3c(=O)[nH]ccc32)CO1 [Example 5-99] .
Response given: 9.85

----------
TARGET: JAK2 (recombinant purified GST-tagged catalytic domain) (Homo sapiens (Human))
PROTOCOL DETAILS: Jak Biochemical HTRF Assay (JAK2)
TEST CONTEXT: [ATP] 8.5 μM
Threshold check on IC50: strictly below 0.3 nM is YES; on or above 0.3 nM is NO.

Record excerpt, results attached:
- CC(C)S(=O)(=O)c1ccc(Nc2nn([C@]3(CC#N)CCCOC3)c3cc[nH]c(=O)c23)cc1 [Example 5-179]: YES
- CN(C)S(=O)(=O)c1ccc(Nc2nn(C3(CC#N)CCC(=O)CC3)c3cc[nH]c(=O)c23)cc1 [Example 18-39]: NO
- CC(C)(C)OC(=O)N1CCC(CC#N)(n2nc(Nc3ccc([C@@H](O)C(F)(F)F)cc3)c3c(=O)[nH]ccc32)CC1 (single isomer, unassigned) [Example 5-3]: NO
- N#CC[C@]1(n2nc(Nc3ccc(C#N)cc3)c3c(=O)[nH]ccc32)CCOC1 (single isomer, unassigned) [Example 5-240]: NO
- N#CC[C@]1(n2nc(Nc3ccc(OC(F)(F)F)cc3)c3c(=O)[nH]ccc32)CC[C@H](NC2CCCCC2)CC1 [Example 18-19]: NO

Challenge: # TODO verify IC50 < 0.3 nM strictly for this molecule: N#CCC1(n2nc(Nc3ccc(S(=O)(=O)N4CCC4)cc3)c3c(=O)[nH]ccc32)CCCC1 [Example 5-132]
Response given: NO

Challenge: # TODO verify IC50 < 0.3 nM strictly for this molecule: COC(=O)N1CCC(CC#N)(n2nc(Nc3ccc(C#N)cc3)c3c(=O)[nH]ccc32)CC1 [Example 5-145]
Response given: NO

Challenge: # TODO verify IC50 < 0.3 nM strictly for this molecule: Cc1cc(Nc2nn([C@@]3(CC#N)CCCC[C@H]3F)c3cc[nH]c(=O)c23)ccc1C(=O)N1CCSCC1 [Example 5-154]
Response given: YES

Challenge: # TODO verify IC50 < 0.3 nM strictly for this molecule: CC(C)(C)OC(=O)N1CCC(CC#N)(n2nc(Nc3cc(Cn4nccn4)cc(Cn4nccn4)c3)c3c(=O)[nH]ccc32)CC1 [Example 5-63]
Response given: NO

Challenge: # TODO verify IC50 < 0.3 nM strictly for this molecule: CN(C)S(=O)(=O)c1ccc(Nc2nn(C3(CC#N)CCN(Cc4ccccc4F)CC3)c3cc[nH]c(=O)c23)cc1 [Example 8-9]
Response given: YES

Challenge: # TODO verify IC50 < 0.3 nM strictly for this molecule: CC(C)(C)OC(=O)[C@@H]1CC[C@@](CC#N)(n2nc(Nc3ccc(C(N)C(F)(F)F)cc3)c3c(=O)[nH]ccc32)CO1 (stereo partly shown) [Example 5-104]
Response given: YES

Challenge: # TODO verify IC50 < 0.3 nM strictly for this molecule: CC(C)(C)OC(=O)[C@@H]1CC[C@@](CC#N)(n2nc(Nc3ccc(C(C)(O)C(F)(F)F)cc3)c3c(=O)[nH]ccc32)CO1 (single isomer, unassigned) [Example 5-171]
Response given: YES

Challenge: # TODO verify IC50 < 0.3 nM strictly for this molecule: CN(C)S(=O)(=O)c1ccc(Nc2nn(C3(CC#N)CCCC3)c3cc[nH]c(=O)c23)cc1 [Example 5-123]
Response given: NO

----------
TARGET: JAK1 (recombinant purified GST-tagged catalytic domain) (Homo sapiens (Human))
Sequence (P23458 875-1153): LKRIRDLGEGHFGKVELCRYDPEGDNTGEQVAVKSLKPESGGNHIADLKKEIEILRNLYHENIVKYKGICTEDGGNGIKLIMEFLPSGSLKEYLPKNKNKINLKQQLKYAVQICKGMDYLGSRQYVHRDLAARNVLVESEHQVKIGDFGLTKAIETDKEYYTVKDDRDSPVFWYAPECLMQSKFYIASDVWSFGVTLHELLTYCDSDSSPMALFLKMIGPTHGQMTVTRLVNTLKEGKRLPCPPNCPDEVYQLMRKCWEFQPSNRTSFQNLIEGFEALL
PROTOCOL DETAILS: Jak Biochemical HTRF Assay (JAK1)
TEST CONTEXT: [ATP] 31.8 μM
Property: IC50; scope: individual compounds
Reply with a number, then the unit it belongs to.

• CN(C)S(=O)(=O)c1ccc(Nc2nn(C3(CC#N)CCN(C(=O)CCC(F)(F)F)CC3)c3cc[nH]c(=O)c23)cc1 = 0.08 nM
• CC(C)(C)OC(=O)N1CCC(CC#N)(n2nc(Nc3ccc(S(=O)(=O)NC4CCCCC4)cc3)c3c(=O)[nH]ccc32)CC1 = 1.2 nM
• CC(C)(C)OC(=O)[C@@H]1CC[C@@](CC#N)(n2nc(Nc3cnc4ccccc4c3)c3c(=O)[nH]ccc32)CO1 = 0.35 nM

For the next question, use this compound.
Challenge: Please report the recorded IC50 for CO[C@H]1CCN(C(=O)c2ccc(Nc3nn([C@]4(CC#N)CCCOC4)c4cc[nH]c(=O)c34)cc2C)C1 .
Response given: 0.61 nM

----------
TARGET: JAK2 (recombinant purified GST-tagged catalytic domain) (Homo sapiens (Human), UniProt O60674)
PROTOCOL DETAILS: Jak Biochemical HTRF Assay (JAK2)
TEST CONTEXT: [ATP] 8.5 μM
Property: pIC50; scope: individual compounds
By convention, pIC50 is the negative base-10 log of a molar concentration.

* COC1CN([C@H]2CC[C@](CC#N)(n3nc(Nc4ccc(Cl)c(F)c4)c4c(=O)[nH]ccc43)CC2)C1 [Example 18-24] | 8.23
* CN(C)C(=O)c1ccc2cc(Nc3nn([C@]4(CC#N)CC[C@@H](C(=O)OC(C)(C)C)OC4)c4cc[nH]c(=O)c34)ccc2n1 [Example 5-238] | 9.32

Challenge: Please report the recorded pIC50 for CC(C)N(C)S(=O)(=O)c1ccc(Nc2nn([C@]3(CC#N)CC[C@@H](C(=O)OC(C)(C)C)OC3)c3cc[nH]c(=O)c23)cc1 [Example 5-91] .
Response given: 9.64

----------
Property: IC50; scope: individual compounds
TARGET: JAK2 (recombinant purified GST-tagged catalytic domain) (Homo sapiens (Human))
PROTOCOL DETAILS: Jak Biochemical HTRF Assay (JAK2)
TEST CONTEXT: [ATP] 8.5 μM
Reply with just the number (in nM).

Worked examples follow.
* CC(C)(C)OC(=O)[C@@H]1CC[C@@](CC#N)(n2nc(Nc3ccc(C(O)C(F)(F)F)cc3)c3c(=O)[nH]ccc32)CO1 (single isomer, unassigned) [Example 5-169] | 0.41
* CCC(C)(C)S(=O)(=O)c1ccc(Nc2nn([C@]3(CC#N)CCCOC3)c3cc[nH]c(=O)c23)cc1 | 0.33

For the next question, use this compound.
Challenge: Please report the recorded IC50 for Cc1cc(Nc2nn([C@]3(CC#N)CC[C@@H](C(=O)OC(C)(C)C)OC3)c3cc[nH]c(=O)c23)ccc1C(=O)N1CCOCC1 .
Response given: 0.19
